- System: S. aureus ATCC 29213
- run description: Broth microdilution MIC, ATCC strains
- Type: cell-based
- details: Staphylococcus aureus, ATCC29213, S. aureus ATCC 29213; read-out: MIC (growth inhibition, microdilution method)
measured metric: MIC

- smiles notation: "COC(=O)c1cc(-c2nnnn2C)c(C(=O)OC)s1"
  data value: "> 16 µg/mL"
- smiles notation: "CCOC(=O)c1cc(-c2nnn[nH]2)c(-c2ccc(F)cc2)s1"
  data value: "> 64 µg/mL"
- smiles notation: "COC(=O)c1sc(-c2ccc(F)cc2)cc1-c1nnn(C)n1"
  data value: "> 8 µg/mL"

----------
Reported MIC by item:
- Test system: K. oxytoca ATCC 49131
- run description: Broth microdilution MIC, ATCC strains
- Assay type: cell-based
- details: Klebsiella oxytoca, ATCC49131; K. oxytoca ATCC 49131; read-out: MIC (growth inhibition, microdilution method)
measured metric: MIC

- molecule: "COC(=O)c1sc(-c2ccc(F)cc2)cc1-c1nnn(C)n1 [DNM-144]"
  measured metric: "MIC"
  data value: "> 8 µg/mL"
- molecule: "Fc1ccc(-c2cc(-c3nnn[nH]3)c(-c3ccc(F)cc3)s2)cc1 [DNM-131]"
  measured metric: "MIC"
  data value: "> 32 µg/mL"
- molecule: "Cn1nnnc1-c1cc(-c2ccc(F)cc2)sc1-c1ccc(F)cc1 [DNM-133]"
  measured metric: "MIC"
  data value: "> 16 µg/mL"
- molecule: "Cn1nnc(-c2cc(C(=O)O)sc2-c2ccc(F)cc2)n1 [DNM-123]"
  measured metric: "MIC"
  data value: "> 8 µg/mL"
- molecule: "O=C(O)c1sc(-c2ccc(F)cc2)cc1-c1nnn[nH]1 [DNM-141]"
  measured metric: "MIC"
  data value: "> 16 µg/mL"
- molecule: "COC(=O)c1sc(-c2ccc(F)cc2)cc1-c1nnnn1C [DNM-145]"
  measured metric: "MIC"
  data value: "> 4 µg/mL"

----------
- Tested on: E. faecalis ATCC 29212
- run description: Broth microdilution MIC, ATCC strains
- Format: cell-based
- details: Enterococcus faecalis, ATCC29212, E. faecalis, ATCC number not given; read-out: MIC (growth inhibition, microdilution method)
Reported MIC by item:

- molecule: "Cn1nnc(-c2cc(-c3ccc(F)cc3)sc2-c2ccc(F)cc2)n1 [DNM-132]"
  MIC: "> 16 µg/mL"
- molecule: "CCOC(=O)c1cc(-c2nnn(C)n2)c(-c2ccc(F)cc2)s1 [DNM-125]"
  MIC: "> 16 µg/mL"
- molecule: "COC(=O)c1sc(-c2ccc(F)cc2)cc1-c1nnnn1C [DNM-145]"
  MIC: "> 4 µg/mL"
- molecule: "Cn1nnc(-c2cc(-c3ccc(F)cc3)sc2C(=O)O)n1 [DNM-142]"
  MIC: "> 16 µg/mL"
- molecule: "CCOC(=O)c1cc(-c2nnn[nH]2)c(-c2ccc(F)cc2)s1 [DNM-124]"
  MIC: "> 64 µg/mL"
- molecule: "O=C(O)c1sc(-c2ccc(F)cc2)cc1-c1nnn[nH]1 [DNM-141]"
  MIC: "> 16 µg/mL"

----------
- Tested on: E. cloacae clinical isolates
- run description: Broth microdilution MIC, clinical isolate strains (NAUTICA)
- Format: cell-based
- details: clinical isolates, one table line per isolate; unit assumed
measured metric: MIC, E. CLOACAE

- smiles notation: "CCOC(=O)c1cc(-c2nnn[nH]2)c(-c2ccc(F)cc2)s1"
  data value: "> 64 µg/mL"
- smiles notation: "Cn1nnc(-c2cc(C(=O)O)sc2C(=O)O)n1"
  data value: "> 256 µg/mL"
- smiles notation: "COC(=O)c1cc(-c2nnnn2C)c(C(=O)OC)s1"
  data value: "> 16 µg/mL"

----------
- System: S. simulans ATCC 27848
- run description: Broth microdilution MIC, ATCC strains
- Assay type: cell-based
- details: Staphylococcus simulans, ATCC27848, read-out: MIC (growth inhibition, microdilution method)
measured metric: MIC

- smiles notation: "Cn1nnnc1-c1cc(C(=O)O)sc1C(=O)O"
  measured metric: "MIC"
  data value: "32 µg/mL"
- smiles notation: "Cn1nnc(-c2cc(C(=O)O)sc2C(=O)O)n1"
  measured metric: "MIC"
  data value: "8 µg/mL"
- smiles notation: "COC(=O)c1cc(-c2nnnn2C)c(C(=O)OC)s1"
  measured metric: "MIC"
  data value: "> 16 µg/mL"
- smiles notation: "Cn1nnnc1-c1cc(-c2ccc(F)cc2)sc1-c1ccc(F)cc1"
  measured metric: "MIC"
  data value: "> 16 µg/mL"
- smiles notation: "Cn1nnnc1-c1cc(-c2ccc(F)cc2)sc1C(=O)O"
  measured metric: "MIC"
  data value: "> 8 µg/mL"
- smiles notation: "Cn1nnc(-c2cc(C(=O)O)sc2-c2ccc(F)cc2)n1"
  measured metric: "MIC"
  data value: "> 8 µg/mL"
- smiles notation: "Cn1nnc(-c2cc(-c3ccc(F)cc3)sc2-c2ccc(F)cc2)n1"
  measured metric: "MIC"
  data value: "> 16 µg/mL"
- smiles notation: "O=C(O)c1sc(-c2ccc(F)cc2)cc1-c1nnn[nH]1"
  measured metric: "MIC"
  data value: "> 16 µg/mL"
- smiles notation: "CCOC(=O)c1cc(-c2nnn(C)n2)c(-c2ccc(F)cc2)s1"
  measured metric: "MIC"
  data value: "> 16 µg/mL"
- smiles notation: "O=C(O)c1cc(-c2nnn[nH]2)c(C(=O)O)s1"
  measured metric: "MIC"
  data value: "256 µg/mL"
